Reference for the values: patent US9914732B2

Biological target: UniProt Q13451
Sequence (Q13451 42-130 limits assumed): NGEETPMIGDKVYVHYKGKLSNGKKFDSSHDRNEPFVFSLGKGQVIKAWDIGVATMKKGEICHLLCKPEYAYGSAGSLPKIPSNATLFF
Test: Fluorescence polarization (FP) assay, binding to the FK506-binding domain of FKBP51
Conditions: FK506-binding domain of FKBP51 (FKBP51FK1), competition with fluorescent ligand 2b
Procedure: In the present invention, in vitro fluorescence polarization assays with the compounds of the general formula (I) were performed to determine the binding affinities to FKBP51 and FKBP52 or to the isolated FK506-binding domains of FKBP51 and FKBP52 (Example 8). […] Example 11: Fluorescence Polarization (FP) Assays […] For fluorescence polarization assays the fluorescent ligand 2b was dissolved in HEPES (20 mm, pH 8), Triton-X100 (0.01%), at double the concentration required for the final sample. […]
pKi: −log10 of the molar value.
MEASURED_METRIC: pKi

Query string: Which measured pKi value corresponds to C#CCN1C[C@H](COC)[C@H]2CCC[C@@H](C1=O)N2S(=O)(=O)c1ccc(NC(C)=O)c(Cl)c1 [Compound N8] ?
Result string: 6.30 to 7.00

Query string: Which measured pKi value corresponds to C#CCN1C[C@H](COC)[C@H]2CCC[C@@H](C1=O)N2S(=O)(=O)c1cccc(C(=O)OC)c1 [Compound N10] ?
Result string: 6.30 to 7.00

Query string: Which measured pKi value corresponds to COC[C@H]1CN(Cc2cnn[nH]2)C(=O)[C@@H]2CCC[C@H]1N2S(=O)(=O)c1ccc(NC(C)=O)c(Cl)c1 [Compound N23] ?
Result string: ≥ 7.00

Query string: Which measured pKi value corresponds to COc1ccc(OCCN2C[C@H](C[C@H](C)O)C3CCCC(C2=O)N3S(=O)(=O)c2cc(Cl)cc(Cl)c2)cc1OC (single isomer, unassigned) [Compound D4] ?
Result string: ≥ 7.00

Query string: Which measured pKi value corresponds to C=CC1CN(Cc2ccccn2)C(=O)C2CCCC1N2S(=O)(=O)c1cc(Br)cc(C(=O)OC)c1 (stereo in doubt) [Compound K24] ?
Result string: ≥ 7.00

Query string: Which measured pKi value corresponds to COc1ccc(OCCN2CCC3CCCC(C2=O)N3S(=O)(=O)c2cc(Cl)cc(Cl)c2)cc1OC (stereo not drawn) [Ref. 1, reference compound] ?
Result string: 5.30 to 6.00

Query string: Which measured pKi value corresponds to CCOCCN1C[C@H](C(O)CO)[C@H]2CCC[C@@H](C1=O)N2S(=O)(=O)c1cc(Cl)cc(Cl)c1 (stereo partly drawn) [Compound C3] ?
Result string: 6.30 to 7.00

Query string: Which measured pKi value corresponds to CN(C)C[C@H]1CN(Cc2ccccn2)C(=O)[C@@H]2CCC[C@H]1N2S(=O)(=O)c1cc(Cl)cc(Cl)c1 [Compound M2] ?
Result string: ≥ 7.00

Query string: Which measured pKi value corresponds to C=CC1CN(Cc2c[nH]nn2)C(=O)C2CCCC1N2S(=O)(=O)c1cc(Cl)cc(Cl)c1 (stereo in doubt) [Compound J13] ?
Result string: ≥ 7.00

Query string: Which measured pKi value corresponds to COC[C@H]1CN(Cc2cnn[nH]2)C(=O)[C@@H]2CCC[C@H]1N2S(=O)(=O)c1ccc(-c2ncccn2)cc1 [Compound N27] ?
Result string: ≥ 7.00

Query string: Which measured pKi value corresponds to C#CCN1C[C@H](COC)[C@H]2CCC[C@@H](C1=O)N2S(=O)(=O)c1cc(Cl)cc(C(=O)OC)c1 [Compound N12] ?
Result string: 6.30 to 7.00

Query string: Which measured pKi value corresponds to COCCN1C[C@H](C(C)(C)O)[C@H]2CCC[C@@H](C1=O)N2S(=O)(=O)c1cc(Cl)cc(Cl)c1 [Compound B3] ?
Result string: ≥ 7.00

Query string: Which measured pKi value corresponds to COc1ccc(OCCN2C[C@H](C(C)O)C3CCCC(C2=O)N3S(=O)(=O)c2cc(Cl)cc(Cl)c2)cc1OC (stereo in doubt) [Compound D7] ?
Result string: ≥ 7.00

Query string: Which measured pKi value corresponds to COC[C@H]1CN(Cc2cnn[nH]2)C(=O)[C@@H]2CCC[C@H]1N2S(=O)(=O)c1cc(Br)cc(Br)c1 [Compound N18] ?
Result string: ≥ 7.00

Query string: Which measured pKi value corresponds to COCO[C@H]1CNC(=O)[C@@H]2CCC[C@H]1N2S(=O)(=O)c1cc(Cl)cc(Cl)c1 [Compound H2.2] ?
Result string: 6.00 to 6.30

Query string: Which measured pKi value corresponds to COCCN1C[C@H]([C@H](C)O)[C@H]2CCC[C@@H](C1=O)N2S(=O)(=O)c1cc(Cl)cc(Cl)c1 [Compound B7] ?
Result string: ≥ 7.00

Query string: Which measured pKi value corresponds to C#CCN1C[C@H](COC)[C@H]2CCC[C@@H](C1=O)N2S(=O)(=O)c1cc(Cl)cc(C(N)=O)c1 [Compound N6] ?
Result string: 6.30 to 7.00

Query string: Which measured pKi value corresponds to COc1ccc(OCCN2C[C@H](O)[C@H]3CCC[C@@H](C2=O)N3S(=O)(=O)c2cc(Cl)cc(Cl)c2)cc1OC [Compound H2.3] ?
Result string: ≥ 7.00

Query string: Which measured pKi value corresponds to C=C[C@@H]1CN(Cc2ccccn2)C(=O)[C@@H]2CCC[C@H]1N2S(=O)(=O)c1ccc(-c2ccccc2)nc1 [Compound K27] ?
Result string: 6.30 to 7.00

Query string: Which measured pKi value corresponds to COc1ccc(OCCN2C[C@H]([C@H](O)CO)C3CCCC(C2=O)N3S(=O)(=O)c2cc(Cl)cc(Cl)c2)cc1OC (stereo partly drawn) [C2(C2a/b)] ?
Result string: ≥ 7.00

Query string: Which measured pKi value corresponds to O=C1NCCC2CCCC1N2S(=O)(=O)c1ccc2sc(=O)[nH]c2c1 (stereo not drawn) [Ref. 4, reference compound] ?
Result string: < 5.30
